Provenance of the data: ChEMBL document CHEMBL3407362

Biological target: Aldo-keto reductase family 1 member B1 (Rattus norvegicus, UniProt P07943)
Experiment: Inhibition of Wistar rat lenses ALR2 using D,L-glyceraldehyde as substrate preincubated for 10 mins before substrate addition measured after 4 mins by spectrophotometry
// values below are reported pIC50
Bear in mind: pIC50 is minus log10 of a mol/L concentration; give just that figure.

Here's what some known entries look like.
entry smiles: O=C(O)Cn1c(=O)c(Cc2ccccc2)nc2ccccc21
target or test system: Aldo-keto reductase family 1 member B1 (Rattus norvegicus, UniProt P07943)
endpoint: pIC50
measured number: 5.95
//
entry smiles: O=C(O)Cn1c(=O)c(-c2ccc(F)cc2)nc2ccc(F)cc21
target or test system: Aldo-keto reductase family 1 member B1 (Rattus norvegicus, UniProt P07943)
endpoint: pIC50
measured number: 6.06
//
entry smiles: O=C(O)Cn1c(=O)c(-c2ccc(O)cc2O)nc2cc(Br)ccc21
target or test system: Aldo-keto reductase family 1 member B1 (Rattus norvegicus, UniProt P07943)
endpoint: pIC50
measured number: 6.86
//
entry smiles: O=C(O)Cn1c(=O)c(/C=C/c2ccc(O)cc2)nc2ccc(F)cc21
target or test system: Aldo-keto reductase family 1 member B1 (Rattus norvegicus, UniProt P07943)
endpoint: pIC50
measured number: 6.82

Query: Data request, read-out pIC50, for O=C(O)Cn1c(=O)c(/C=C/c2ccc(O)cc2)nc2ccccc21
Response: 6.74

Query: # repeat for O=C(O)Cn1c(=O)c(-c2ccc(O)cc2O)nc2cc(F)ccc21
Response: 7.20
